Tested on: Low density cholesterol (Chl small) plaque particles
measurement_protocol: Mass spectroscopy proteomics, semi-quantitative binding affinity of serum proteins (plaqueproteome, Table 2)
Parameters: species or system human
measurement_parameters: higher number = stronger affinity
measurement_label: Semi-quantitative analysis of proteins binding to different plaque particles: Chl small

molecule="Ig heavy chain V-I region HG3 (protein) QVQLVQSGAEVKKPGASVKVSCKASGYTFTSYYMHWVRQAPGQGLEWMGIINPSGGSTSYAQKFQGRVTMTRDTSTSTVYMELSSLRSEDTAVYYCAR" reading=1
molecule="CD5 antigen-like (protein) SPSGVRLVGGLHRCEGRVEVEQKGQWGTVCDDGWDIKDVAVLCRELGCGAASGTPSGILYEPPAEKEQKVLIQSVSCTGTEDTLAQCEQEEVYDCSHDEDAGASCENPESSFSPVPEGVRLADGPGHCKGRVEVKHQNQWYTVCQTGWSLRAAKVVCRQLGCGRAVLTQKRCNKHAYGRKPIWLSQMSCSGREATLQDCPSGPWGKNTCNHDEDTWVECEDPFDLRLVGGDNLCSGRLEVLHKGVWGSVCDDNWGEKEDQVVCKQLGCGKSLSPSFRDRKCYGPGVGRIWLDNVRCSGEEQSLEQCQHRFWGFHDCTHQEDVAVICSG" reading=7
molecule="Ig heavy chain V-III region WEA (protein) EVQLVESGGGLVQPGGSLRLSCAASGFTFSSYEMNWVRQAPGKGLEWVSYISSSGSTIYYADSVKGRFTISRDNAKNSLYLQMNSLRAEDTAVYYCAR" reading=1
